# Tested on: anesthetized guinea-pig
# test name: Inotropic effect and lethal dose, slow intravenous infusion in anesthetized guinea-pig
# measurement conditions: in the survived animals
Where a name gives a salt, the structure may show the parent alone.
metric name: Maximum dose infused (µmol/kg)
Number only, in µmol/kg; omit the unit.

// worked examples, Maximum dose infused included
- CC12CCC3C(NCCC4CC(=NOC5CCNC5)CCC43C)C1CCC2=O (stereo not shown) [I-ba]: 50.0
- C[C@]12CCC(=NOCCN)CC1C(=O)C[C@@H]1[C@@H]2CC[C@]2(C)C(=O)CC[C@@H]12.Cl (mixture of isomers) [Compd. 22b, reference compound]: 32.1
- C[C@H]1O[C@@H](O[C@H]2[C@@H](O)C[C@H](O[C@H]3[C@@H](O)C[C@H](O[C@H]4CC[C@@]5(C)[C@H](CC[C@@H]6[C@@H]5C[C@@H](O)[C@]5(C)[C@@H](C7=CC(=O)OC7)CC[C@]65O)C4)O[C@@H]3C)O[C@@H]2C)C[C@H](O)[C@@H]1O [digoxin, reference compound]: 1.16

For the compound CC12CCC3C(OC(=O)CC4CC(=NOC5CCNC5)CCC43C)C1CCC2=O (stereo not shown) [I-bk, hydrochloride] , what Maximum dose infused is on record?
25.3
